Target: recombinant SARS-CoV-2 Main protease (Mpro) (Severe acute respiratory syndrome coronavirus 2 (2019-nCoV) (SARS-CoV-2), UniProt P0DTD1)
Test: Cov Mpro Biochemical IC50 Assay
Settings: recombinant SARS-CoV-2 Mpro 7.5 nM, fluorogenic peptide substrate 40 μM; read-out: MPro IC50
Below, each of the compounds is paired with its reported log10 IC50 value.
Transform log10 | Measure IC50 | Unit nM

Report log10 IC50, nothing else, for this compound: `COc1cc(-c2cc3[nH]c(=O)n(-c4cncc5nc(C)sc45)c(=O)c3s2)c(Cl)cc1F`
1.35

Tell me log10 IC50 reported for `N#CCn1c(=O)n(-c2cncc3ccccc23)c(=O)c2sc(-c3ccc(F)cc3Cl)cc21`
0.49

Please report the measured log10 IC50 for COc1cc(-c2cc3c(s2)c(=O)n(-c2cncc4cccnc24)c(=O)n3CCC#N)c(Cl)cc1F [Example 904]
0.63

---

pIC50 for assorted compounds
Target: recombinant SARS-CoV-2 Main protease (Mpro) (Severe acute respiratory syndrome coronavirus 2 (2019-nCoV) (SARS-CoV-2))
Test: Cov Mpro Biochemical IC50 Assay
Details: recombinant SARS-CoV-2 Mpro 7.5 nM, fluorogenic peptide substrate 40 μM; read-out: MPro IC50
Recall that pIC50 is obtained by taking minus log10 of the concentration measured in molar.

Give me measured pIC50, please, for this compound: `COc1ccc(Cl)c(-c2cc3[nH]c(=O)n(-c4cncc5c(OC)cccc45)c(=O)c3s2)c1`
5.70

Using the record for `COc1ccc(Cl)c(-c2ccc3c(=O)n(-c4cncc5ccc(N6CC7(CCOC7)C6)cc45)c(=O)[nH]c3c2)c1` , state its measured pIC50.
7.89

Give pIC50 for `Cc1cc(-c2cc3c(s2)c(=O)n(-c2cncc4ccccc24)c(=O)n3CCC#N)c(C#N)cc1F`
7.79

Return value of pIC50 for input `N#Cc1ccc(Cl)cc1-c1cc2[nH]c(=O)n(-c3cncc4ccccc34)c(=O)c2s1` , no commentary.
7.92

Write down pIC50 measured for item COc1cc(-c2cc3[nH]c(=O)n(-c4cncc5ccccc45)c(=O)c3cc2OC)c(C#N)cc1F (single isomer, unassigned) [Example 571]
7.11

***
Output measured pIC50 for this item: `COc1cc(-c2cc3c(s2)c(=O)n(-c2cncc4cnn(C)c24)c(=O)n3CCC#N)c(Cl)cc1Cl`
8.23

Give recorded pIC50. COc1cc(-c2cc3c(s2)c(=O)n(-c2cncc4ccccc24)c(=O)n3CC#N)c(Cl)cc1F (single isomer, unassigned) [Example 634]
7.54

Give the value of pIC50 reported for the following: `N#CCCn1c(=O)n(-c2cncc(C3CC4(COC4)C3)c2)c(=O)c2sc(-c3ccccc3Cl)cc21`
7.62

Give the value of pIC50 reported for the following: `N#CCCn1c(=O)n(-c2cncc(C#N)c2)c(=O)c2sc(-c3ccccc3Cl)cc21`
8.29

// Input: COc1cc(-c2cc3c(s2)c(=O)n(-c2cncc4ccccc24)c(=O)n3CCC#N)c(Cl)cc1F (single isomer, unassigned) [Example 638] . Output its pIC50 only.
6.72

---

Target: recombinant SARS-CoV-2 Main protease (Mpro) (Severe acute respiratory syndrome coronavirus 2 (2019-nCoV) (SARS-CoV-2), UniProt P0DTD1)
Experiment: Cov Mpro Biochemical IC50 Assay
Conditions: recombinant SARS-CoV-2 Mpro 7.5 nM, fluorogenic peptide substrate 40 μM; read-out: MPro IC50
assay_readout: pIC50
Note on pIC50: it is the negative log10 of concentration, concentration in mol/L.

// worked examples, pIC50 included
Note pIC50 for the molecule shown: Cn1ncc2cncc(-n3c(=O)c4sc(-c5cc(C(F)(F)F)ccc5C#N)cc4n(CCC#N)c3=O)c21 [Example 822]
7.02

Identify pIC50 associated with the molecule Cn1cnc(Cn2c(=O)n(-c3cncc4ccccc34)c(=O)c3sc(-c4ccccc4Cl)cc32)n1 (single isomer, unassigned) [Example 477]
7.24

Please report pIC50 for the following molecule: COc1cc(-c2cc3c(s2)c(=O)n(-c2cncc4ccccc24)c(=O)n3CC2(C#N)CC2)c(Cl)cc1F (single isomer, unassigned) [Example 636]
7.93

Please give the documented pIC50 of N#Cc1ccc(F)c(-c2cc3[nH]c(=O)n(-c4cncc5ccccc45)c(=O)c3s2)c1 [Example 547]
6.77

Provide measured pIC50 value, entry: COc1cc(-c2cc3c(s2)c(=O)n(-c2cncc4ccccc24)c(=O)n3CC2(C#N)CC2)c(Cl)cc1F (single isomer, unassigned) [Example 635]
8.49

Next:
Quickly give me recorded pIC50 for COc1ccc(Cl)c(-c2cc3[nH]c(=O)n(-c4cncc5ccc(OC)cc45)c(=O)c3s2)c1 [Example 625]
8.16

Write down pIC50 measured for item COc1ccc(Cl)c(-c2cc3[nH]c(=O)n(-c4cncc5c(Cl)cccc45)c(=O)c3s2)c1 [Example 595]
6.32

Please report pIC50 for the following molecule: COc1cc(-c2cc3c(s2)c(=O)n(-c2cncc4ccccc24)c(=O)n3CC#N)c(Cl)cc1F [Example 630]
8.20

Look up and state reported pIC50 for CS(=O)(=O)N1CC(Nc2ccc3cncc(-n4c(=O)[nH]c5cc(-c6ccccc6Cl)sc5c4=O)c3c2)C1 [Example 406]
7.90

Answer with the recorded pIC50 of CC(=O)NCCn1c(=O)n(-c2cncc(C3CC3)c2)c(=O)c2sc(-c3ccccc3Cl)cc21 [Example 620] only.
6.55

Determine from records and report pIC50 for N#CCCn1c(=O)n(-c2cncc3nnn(C4CC4)c23)c(=O)c2sc(-c3ccc(F)cc3Cl)cc21 [Example 883]
7.52

Retrieve pIC50 measured for COc1cc(-c2cc3c(s2)c(=O)n(-c2cccnc2)c(=O)n3CCC#N)c(Cl)cc1F [Example 982] and print it.
8.39

Return reported pIC50. Input molecule: COc1cc(-c2cc3[nH]c(=O)n(-c4cc(C(F)(F)F)cnn4)c(=O)c3s2)c(Cl)cc1F [Example 748]
7.30

For Cc1c(F)cncc1-n1c(=O)c2sc(-c3cc(F)c(F)cc3Cl)cc2n(CCC#N)c1=O [Example 850] , write its pIC50.
7.57

// fetch pIC50 given entry COc1cc(-c2cc3[nH]c(=O)n(-c4cncc5cccc(F)c45)c(=O)c3s2)c(C#N)cc1F [Example 762]
8.14

Determine from records and report pIC50 for COc1cc(-c2cc3[nH]c(=O)n(-c4cncc5[nH]cc(C)c45)c(=O)c3s2)c(Cl)cc1F [Example 767]
8.29

Determine its reported pIC50: COc1cc(-c2cc3[nH]c(=O)n(-c4cncc(Cl)c4Cl)c(=O)c3s2)c(Cl)cc1F [Example 742]
7.82

Dear colleague, please send me the reported pIC50 for COc1ccc(Cl)c(-c2cc3[nH]c(=O)n(-c4cncc5ccc(N6CCS(=O)(=O)CC6)nc45)c(=O)c3s2)c1 [Example 458] when you can.
7.92
